# Study System: rat SVCT1 (Rattus norvegicus)
# Construct: expressed in transfected cells; host or cells: Xenopus laevis oocytes injected with cRNA
# Sequence (Q9WTW7 whole entry): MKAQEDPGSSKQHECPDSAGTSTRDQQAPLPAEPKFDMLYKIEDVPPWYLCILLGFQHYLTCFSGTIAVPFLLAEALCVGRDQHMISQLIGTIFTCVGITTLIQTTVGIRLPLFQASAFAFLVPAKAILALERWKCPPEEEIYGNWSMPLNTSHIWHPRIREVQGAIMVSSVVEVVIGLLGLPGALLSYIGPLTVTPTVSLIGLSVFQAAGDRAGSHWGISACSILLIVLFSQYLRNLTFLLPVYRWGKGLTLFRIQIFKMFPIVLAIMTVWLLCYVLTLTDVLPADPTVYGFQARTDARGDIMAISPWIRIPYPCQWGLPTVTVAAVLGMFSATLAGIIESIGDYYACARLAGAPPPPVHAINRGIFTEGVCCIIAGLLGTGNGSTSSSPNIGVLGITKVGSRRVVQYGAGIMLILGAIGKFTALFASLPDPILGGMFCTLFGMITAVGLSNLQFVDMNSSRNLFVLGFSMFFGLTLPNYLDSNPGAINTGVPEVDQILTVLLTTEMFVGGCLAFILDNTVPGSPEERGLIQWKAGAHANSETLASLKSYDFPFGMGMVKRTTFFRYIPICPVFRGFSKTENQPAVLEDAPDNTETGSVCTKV
# Protocol Summary: Two-microelectrode voltage-clamp of Xenopus oocytes expressing rat SVCT1
# Format: cell-based
# Setup Conditions: oocytes expressing SVCT1
Measurement Name: evoked current / substrate selectivity (in words)

Worked examples follow.
O=c1cc[nH]c(=O)[nH]1 [uracil] = excluded
O=C1O[C@H]([C@@H](O)CO)[C@H](O)[C@@H]1O [L-gulono-γ-lactone] = excluded
O=c1[nH]c(=O)c2[nH]cnc2[nH]1 [xanthine] = tiny outward currents
CC(=O)Oc1ccccc1C(=O)O [aspirin, acetyl-salicylic acid] = tiny outward currents
O=C(CCc1ccc(O)cc1)c1c(O)cc(O)cc1O[C@@H]1O[C@H](CO)[C@@H](O)[C@H](O)[C@H]1O [phlorizin] = tiny outward currents

Query: Return the recorded evoked current / substrate selectivity (in words) value; entry: O=C[C@H](O)[C@@H](O)[C@H](O)[C@H](O)CO [D-glucose]
Reply: excluded

###

# Study System: human SVCT1 (Homo sapiens)
# Construct: expressed in transfected cells; host or cells: Xenopus laevis oocytes injected with cRNA (vector pTLN2)
# Sequence (Q9UHI7 whole entry): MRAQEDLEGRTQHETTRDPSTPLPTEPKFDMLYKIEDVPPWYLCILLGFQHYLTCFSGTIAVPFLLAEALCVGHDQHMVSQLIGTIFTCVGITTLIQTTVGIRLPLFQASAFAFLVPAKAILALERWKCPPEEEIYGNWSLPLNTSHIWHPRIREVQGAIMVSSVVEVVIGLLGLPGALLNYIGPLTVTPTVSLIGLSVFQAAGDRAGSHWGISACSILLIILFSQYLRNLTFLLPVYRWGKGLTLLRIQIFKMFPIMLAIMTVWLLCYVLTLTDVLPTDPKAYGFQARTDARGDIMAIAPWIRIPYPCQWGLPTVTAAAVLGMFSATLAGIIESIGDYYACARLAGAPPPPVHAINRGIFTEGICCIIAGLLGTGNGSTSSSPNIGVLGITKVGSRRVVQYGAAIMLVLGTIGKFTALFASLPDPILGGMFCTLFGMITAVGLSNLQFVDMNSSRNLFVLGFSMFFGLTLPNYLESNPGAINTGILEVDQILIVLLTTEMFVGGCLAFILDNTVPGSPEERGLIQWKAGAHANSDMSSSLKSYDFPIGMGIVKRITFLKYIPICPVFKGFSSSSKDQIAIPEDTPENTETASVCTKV
# Protocol Summary: Two-microelectrode voltage-clamp of Xenopus oocytes expressing human SVCT1
# Type: cell-based
# Setup Conditions: 500 μM, −50 mV
Measurement Name: transport / substrate selectivity (in words)

O=C[C@H](O)[C@@H](O)[C@H](O)[C@H](O)CO = excluded
O=C1O[C@H]([C@@H](O)CO)C(=O)C1=O [dehydroascorbic acid] = barely transported
O=C1O[C@H]([C@@H](O)CO)C(O)=C1OP(=O)(O)O [L-ascorbic acid-2-phosphate] = barely transported
O=C1O[C@H]([C@@H](O)CO)[C@H](O)[C@@H]1O = excluded

###

# Study System: rat SVCT1 (Rattus norvegicus)
# Construct: expressed in transfected cells; host or cells: Xenopus laevis oocytes injected with cRNA
# Protocol Summary: L-[14C]ascorbic acid radiotracer uptake in Xenopus oocytes expressing rat SVCT1
# Assay type: cell-based
# Setup Conditions: FIG. 4I; read-out: Ki, Dixon analysis of L-[14C]ascorbic acid uptake
Measurement Name: Ki

Query: Respond only with Ki recorded for O=C(CCc1ccc(O)cc1)c1c(O)cc(O)cc1O
Reply: ~65 µM
